Assay: Acute toxicity (LD50), intravenous administration, rat
Details: in vivo, Ratte ♂
READOUT: LD50 (mg/kg)
Use mg/kg as the unit, but write only the number.

Consider the compound shown here: Cc1cc(O)c(S(=O)(=O)O)cc1Cc1cc(S(=O)(=O)O)c(O)cc1C What is its recorded LD50?
930

----------
Assay: Acute toxicity (LD50), intravenous administration, rat
Conditions: in vivo, Ratte ♀
Description: Ihre Toxizität ist geringer als die des aus einem Gemisch von Kondensationsprodukten aus m-Kresolsulfonsäuren und Formaldehyd bestehenden Handelsprodukts. In der nachstehenden Tabelle sind die bei intravenöser Verabreichung an Maus und Ratte ermittelten LDSo-Werte des Dinatriumsalzes der 2,2'-Dihydroxy-5,5'-methylendi-(p-toluolsulfonsäure) (A) und des mit Natriumhydroxid neutralisierten Handelsprodukts (B) aufgeführt.
READOUT: LD50 (mg/kg)
Use mg/kg as the unit, but write only the number.

Consider the molecule shown here: Cc1cc(O)c(S(=O)(=O)O)cc1Cc1cc(S(=O)(=O)O)c(O)cc1C [A] What is its recorded LD50?
990
